assay: inhibitors of TNFa-induced NFkB p65 translocation, primary screen, imaging, HUVEC, MLSMR starter and 10KST1 sets (AID 438); settings: HUVEC TNFa-induced p65 nuclear translocation; measured here: nuclei count (cytotoxicity indicator), at 2.08 µM;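 further: compound added about 3h40 before a 20 min TNFalpha stimulation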
readout: cell count
Answers are plain numbers.

>  <compound>
COc1ccc(-c2cn3c(C)c(C(=O)Nc4cc(NC(C)=O)ccc4OC)sc3n2)cc1

>  <cell count>
693

$$$$
>  <compound>
COc1cc(CNc2ccc(N3CCOCC3)c(C(=O)O)c2)ccc1OCC(N)=O

>  <cell count>
362

$$$$
>  <compound>
COc1cccc(CN2C(=O)C3(C(C#N)=C(N)OC4=C3C(=O)CCC4)c3ccccc32)c1 (stereo not given)

>  <cell count>
352

$$$$
>  <compound>
COc1ccccc1C1C(C(C)=O)=C(O)C(=O)N1CCc1ccccc1 (stereo not given)

>  <cell count>
373

$$$$
>  <compound>
COc1ccc(S(=O)(=O)Cc2ccc(C(=O)N3CCN(Cc4ccccc4)CC3)o2)cc1

>  <cell count>
583

$$$$
>  <compound>
CC(=O)N1CCC2(CC1)CC(=O)c1cc(OCC(=O)NCc3ccc(C)cc3)ccc1O2

>  <cell count>
314

$$$$
>  <compound>
CC1CC(C)CN(c2nc3c(c(=O)[nH]c(=O)n3C)n2CCCSc2nc3ccccc3s2)C1 (stereo not given)

>  <cell count>
383

$$$$
>  <compound>
Cc1ccc(C)c(-c2nc3cc(N)ccc3o2)c1

>  <cell count>
407

$$$$
>  <compound>
S=c1[nH]c2ccc(Cl)cc2[nH]1

>  <cell count>
457

$$$$

Now examine the next entry.
Value lookup for cell count; key = `Cc1csc(NC(=O)Nc2cccc(Cl)c2)n1`
506
